Tested on: Puccinia triticina
Test details: Wheat brown rust (PUCCRT) disease control on wheat seedlings
Format: in vivo
Assay conditions: low volume application, 125.1 g/H, 3 Day Curative
Attribute measured: PUCCRT 3DC, LV activity at 125.1 g/H (% Control rating)

Consider the worked cases shown below.
{"columns": ["Mol smiles", "Observed result"],
 "data": [
  ["COc1ccnc(C(=O)N[C@@H](C)C(=O)O[C@@H](C)[C@H](Oc2cccc(F)c2)c2ccccc2)c1OCOC(C)=O", "A (> 80)"],
  ["CCC(CC)[C@@H](Oc1cc(F)ccc1F)[C@H](C)OC(=O)[C@@H](NC(=O)c1nccc(OC)c1OCOC(C)=O)C(C)C", "B (≤ 80)"],
  ["CCC(CC)[C@@H](Oc1ccc(F)cc1)[C@H](C)OC(=O)[C@@H](NC(=O)c1nccc(OC)c1OC(C)=O)C(C)C", "B (≤ 80)"],
  ["CC[C@H](CCC(C)C)[C@@H](OCC1CC1)[C@H](C)OC(=O)[C@H](C)NC(=O)c1nccc(OC)c1OCOC(C)=O", "B (≤ 80)"],
  ["CCC(CC)[C@@H](Oc1ccc(-c2ccccc2)cc1)[C@H](C)OC(=O)[C@H](C)NC(=O)c1nccc(OC)c1OC(C)=O", "B (≤ 80)"],
  ["CC[C@H](Cc1ccc(F)cc1)[C@@H](Oc1ccccc1)[C@H](C)OC(=O)[C@H](C)NC(=O)c1nccc(OC)c1OC(=O)C(C)C", "D"]
]}

Under Puccinia triticina: PUCCRT 3DC, LV activity at 125.1 g/H (% Control rating) value of `CCC(CC)[C@@H](Oc1ccccc1)[C@H](C)OC(=O)[C@H](C)NC(=O)c1nccc(OC)c1OCOC(C)=O` ? A (> 80)

Can you handle `COc1ccnc(C(=O)N[C@@H](C)C(=O)O[C@@H](C)[C@H](Oc2cc(F)cc(Cl)c2)C(C)C)c1OCOC(C)=O` next? A (> 80)

Can you handle `CCC(CC)[C@@H](Oc1cc(F)cc(Cl)c1)[C@H](C)OC(=O)[C@H](C)NC(=O)c1nccc(OC)c1OCOC(C)=O` next? A (> 80)

Can you handle `CC[C@H](Cc1ccc(F)cc1)[C@@H](Oc1ccccc1)[C@H](C)OC(=O)[C@H](C)NC(=O)c1nccc(OC)c1OC(C)=O` next? A (> 80)

Can you handle `CC[C@H](C)[C@H](NC(=O)c1nccc(OC)c1OCOC(C)=O)C(=O)O[C@@H](C)[C@H](Oc1ccc(C(F)(F)F)cc1)C(C)C` next? B (≤ 80)

Can you handle `COc1ccnc(C(=O)N[C@@H](C)C(=O)O[C@@H](C)[C@H](Oc2ccc(-c3ccccc3)cc2)C(C)C)c1OCOC(C)=O` next? B (≤ 80)

Can you handle `COc1ccnc(C(=O)N[C@@H](C)C(=O)O[C@@H](C)[C@H](Oc2cccc(F)c2)C(C)C)c1OCOC(C)=O` next? A (> 80)
